B1: Hairpin Ribozyme (parent)
chain: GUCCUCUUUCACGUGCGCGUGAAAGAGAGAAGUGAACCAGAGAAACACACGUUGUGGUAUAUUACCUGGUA

variants of: B1; test: self-cleavage, relative activity (ratio to wild type); higher = more cleavage; co-transcriptional
Note to self: class = bucket of self-cleavage, per label 0 (below 0.2), label 1 (0.2 to below 0.5), label 2 (0.5 or more)

Examples with answers:
G19A A24C : label 2
G21A A39C : label 1
G51A U63A : label 0

Query: Dear colleague, I would appreciate it if you could identify the bin for C38A A43G and reply at your convenience.
Response: label 0

Query: // return the class label for G13U A71U
Response: label 2

Query: Which class is correct for the following variant? G17C A44U
Response: label 0
